Each record here notes measured competition rate.
biological target: T1, human MSLN-FL-his protein (human, UniProt Q13421 296-580); assay: competitive ELISA; row F8-13.8; further: test concentration or dose not given here
T1 construct: made in HEK293E cells, purified on nickel column; also called hMSLN-FL-his; human MSLN full-length protein; not shown: His tag
T1 sequence (Q13421 other isoform, or with tags, fused parts or gaps): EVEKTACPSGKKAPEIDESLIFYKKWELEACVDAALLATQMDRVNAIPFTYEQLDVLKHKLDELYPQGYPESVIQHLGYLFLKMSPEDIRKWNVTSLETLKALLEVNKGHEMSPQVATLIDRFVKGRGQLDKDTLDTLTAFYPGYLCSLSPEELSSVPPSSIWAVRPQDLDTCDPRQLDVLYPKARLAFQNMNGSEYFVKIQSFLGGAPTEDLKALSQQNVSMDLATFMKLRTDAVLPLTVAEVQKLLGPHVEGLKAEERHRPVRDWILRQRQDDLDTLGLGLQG
Measurement Name: competition rate (%)

1) S009-F8-19.21 (antibody, human IgG1, kappa, V domains shown, human-murine chimeric antibody, human IgG1/kappa constant regions) VH: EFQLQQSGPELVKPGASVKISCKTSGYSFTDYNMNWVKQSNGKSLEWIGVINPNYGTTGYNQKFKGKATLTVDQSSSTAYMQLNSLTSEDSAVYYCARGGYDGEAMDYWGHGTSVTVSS VL: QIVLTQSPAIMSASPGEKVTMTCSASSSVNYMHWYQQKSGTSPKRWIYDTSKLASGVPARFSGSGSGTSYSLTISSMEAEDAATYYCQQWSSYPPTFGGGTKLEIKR ... 82
2) S009-F8-4.5 (antibody, human IgG1, kappa, V domains shown, human-murine chimeric antibody, human IgG1/kappa constant regions) VH: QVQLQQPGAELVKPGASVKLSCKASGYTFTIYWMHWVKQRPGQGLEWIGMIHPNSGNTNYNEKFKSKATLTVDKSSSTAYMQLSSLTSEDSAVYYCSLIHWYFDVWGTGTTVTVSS VL: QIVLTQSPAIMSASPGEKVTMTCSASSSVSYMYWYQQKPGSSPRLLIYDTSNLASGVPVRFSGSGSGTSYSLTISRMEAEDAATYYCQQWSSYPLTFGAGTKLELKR ... 95.8
